Values compiled from PubChem BioAssay (NCATS).

Assay: Cell Viability - LYMP2-026 (AID 989);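 note: cells exposed to compound for 24 h at 37 °C; % is set by controls: 0 for no effect and ±100 for the full control effect; nearly all actives have a fitted effect of over 50% in size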
Conditions: LYMP2-026 lymphoblastoid cell viability, qHTS; series mostly up to 92.2 µM
Inconclusive results are not listed. Active and inactive are the calls of the source. Calls come from the whole dose curve; as a rule, active = well fitted cell-killing curve with a large enough effect; inconclusive = small, poorly fitted or top-dose-only effect; inactive = flat fitted curve, though single readings scatter.
Measurement label: outcome

Consider the following illustrative entries.
ClC(Br)Br ... inactive
c1ccc2c(c1)CCNC2 ... inactive
Nc1c(Br)cc([N+](=O)[O-])cc1[N+](=O)[O-] ... inactive
CC1CC(=O)O1 (stereo unspecified) ... inactive
Nc1ccc2ccccc2c1 ... inactive
O=[N+]([O-])c1ccc(O)c([N+](=O)[O-])c1 ... inactive
COc1ccc(C=O)cc1 ... inactive
COP(=S)(OC)SCn1nnc2ccccc2c1=O ... inactive
CC(=O)NNc1ccccc1 ... inactive
CCSC(=O)N1CCCCCC1 ... inactive

What measured outcome goes with C=CCBr ?
inactive

Follow-up item: CN(C)c1ccc(N(C)C)cc1
inactive

Follow-up item: CC(C)(C)c1ccccc1O
inactive

Follow-up item: CCCCCC[N+](=O)[O-]
inactive

Follow-up item: [O-][Cl+2]([O-])O
inactive

Follow-up item: CC(=O)[O-].CC(=O)[O-].CC(=O)[O-].[Cr+3]
inactive

---

Entries and their measured max response follow.
Target: Nuclear receptor subfamily 1 group I member 2 (Rattus norvegicus) (UniProt Q9R1A7)
Sequence (Q9R1A7 whole entry, looked up): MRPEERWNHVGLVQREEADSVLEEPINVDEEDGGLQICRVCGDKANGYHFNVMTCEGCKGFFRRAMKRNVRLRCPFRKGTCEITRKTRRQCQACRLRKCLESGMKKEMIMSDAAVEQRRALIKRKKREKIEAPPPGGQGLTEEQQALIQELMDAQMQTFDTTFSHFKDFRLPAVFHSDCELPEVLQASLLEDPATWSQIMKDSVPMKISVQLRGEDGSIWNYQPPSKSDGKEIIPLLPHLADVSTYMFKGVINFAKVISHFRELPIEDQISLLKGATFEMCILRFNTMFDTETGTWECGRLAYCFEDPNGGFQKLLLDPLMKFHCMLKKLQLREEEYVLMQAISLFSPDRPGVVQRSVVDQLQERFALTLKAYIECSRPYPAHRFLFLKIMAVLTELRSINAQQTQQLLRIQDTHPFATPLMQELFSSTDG
Assay: qHTS assay for small molecule activators of the rat pregnane X receptor (rPXR) signaling pathway (AID 651751); note: 0% is about no effect
Conditions: rPXR reporter cells, luciferase (One-Glo), 24 h
Entry rule: numbers only, all in %.

Consider the following illustrative entries.
O=C(O)C(Cl)Br (stereo not given) ... -1.1
O=C(Cc1ccccc1)OCc1ccccc1 ... -0.53
[N-]=[N+]=[N-] ... -8.68
O=C(O)C(Cl)(Cl)Br ... 3.3
N#CCCC#N ... 2.24

What measured max response goes with ClCC(Br)CBr (stereo not given) ?
0.571

Follow-up item: CSSC
-2.6

Follow-up item: Clc1cccc(Cl)c1
1.78

Follow-up item: ClC(Cl)c1ccccc1
3.54

Follow-up item: COc1ccccc1N
20.9

Follow-up item: CN(C)c1ccccc1
-6.91

---

Target: Lysosomal acid glucosylceramidase (Homo sapiens) (UniProt P04062)
Sequence (P04062 whole entry, looked up): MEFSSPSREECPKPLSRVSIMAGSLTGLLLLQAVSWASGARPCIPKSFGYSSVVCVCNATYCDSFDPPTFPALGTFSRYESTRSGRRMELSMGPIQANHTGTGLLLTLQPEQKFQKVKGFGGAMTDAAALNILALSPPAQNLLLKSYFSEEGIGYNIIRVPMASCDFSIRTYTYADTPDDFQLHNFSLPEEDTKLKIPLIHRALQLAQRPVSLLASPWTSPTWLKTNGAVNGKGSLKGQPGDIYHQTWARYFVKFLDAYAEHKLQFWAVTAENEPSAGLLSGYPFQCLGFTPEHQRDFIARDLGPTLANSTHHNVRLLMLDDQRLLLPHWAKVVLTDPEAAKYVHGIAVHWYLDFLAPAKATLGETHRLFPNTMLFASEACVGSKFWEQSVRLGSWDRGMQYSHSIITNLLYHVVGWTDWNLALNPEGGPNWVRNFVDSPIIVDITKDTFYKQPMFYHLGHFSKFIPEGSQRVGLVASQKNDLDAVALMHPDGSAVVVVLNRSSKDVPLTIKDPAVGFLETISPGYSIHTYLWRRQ
Test: Glucocerebrosidase-p2 (AID 348); note: potency is the fitted concentration of half-maximal effect
Details: purified GBA, blue fluorogenic substrate, 40 min
Activity calls are given as the source filed them. Cut-off read from the data, not from the text of the source: active = potency below about 10 µM; inactive = the rest.
Tick one outcome: active, inactive

N=C(N)SCc1ccc(Cl)c2ccccc12 (tested in a mixture with another compound) ... inactive
C[C@]12CN(CC[N+](C)(C)C)C[C@]1(C)[C@@H]1CC[C@@H]2O1 ... active
O=C(Oc1ccc(S(=O)(=O)F)cc1F)c1ccccc1Cl ... inactive
C[C@H](CC(C#N)(c1ccccc1)c1ccccc1)N1CCCCC1 ... inactive
N#CCCCC[N+]12CN3CN(CN(C3)C1)C2 ... inactive
Cc1ccc(S(=O)(=O)O[C@H]2CN3CCC2CC3)cc1 ... inactive
O=C(Oc1ccccc1)N1CCC[C@@]2(CCN(Cc3nccs3)C2)C1 ... inactive
CC(C)=C[C@H]1[C@@H](C(=O)OCc2cc3c(cc2Cl)OCO3)C1(C)C ... inactive
CN(C)CCCNc1c2c(nc3ccc(Cl)cc13)CCCC2 ... inactive
CN(CCC(=O)O)C1=Nc2ccc(Cl)cc2C(c2ccccc2)=[N+]([O-])C1 ... inactive

Please indicate how the test categorized O=P(O)(O)CCP(=O)(O)O .
inactive

Follow-up item: Cc1ncc([N+](=O)[O-])n1CCN=[N+]=[N-]
inactive

Follow-up item: N[C@@H](CP(=O)(O)O)C(=O)O
inactive

Follow-up item: [N-]=[N+]=CC(=O)CC[C@H](N)C(=O)O
inactive

Follow-up item: O=S(=O)(Nc1nccs1)c1ccc([As](=O)(O)O)cc1
inactive

---

Test system: HIV-1 nucleocapsid protein NCp7 (binding to TG oligonucleotide)
Test: HIV Nucleocapsid (AID 346);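 note: potency is the fitted concentration of half-maximal effect; potency is for inhibitors that block NC binding and lower polarization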
Details: HIV-1 NC / fluorescein-TGTGTGTG probe, fluorescence polarization
Active and inactive are the calls of the source. The rule behind the calls is not given here.
Tick one outcome: TRUE (active), FALSE (inactive)

COc1ccc(NC(=O)N2CC3(CCN(S(=O)(=O)c4ccccc4)CC3)C2)cc1 ... FALSE
CN(Cc1ccco1)c1ncncc1-c1ccccc1C(F)(F)F ... FALSE
COc1ccc(CNc2ncnc3ccc(-c4cccnc4)cc23)c(OC)c1 ... FALSE
O=c1c(-c2cccc(F)c2)nc2cncnc2n1Cc1ccccc1Cl ... FALSE
O=c1c(-c2cccs2)nc2cnc(N3CCNCC3)nc2n1Cc1cccs1 ... FALSE

Please indicate how the test categorized CN(C)C(=O)c1ccc(-c2ccc3ncnc(NCc4ccccc4)c3c2)cc1 .
FALSE

Follow-up item: COc1ccccc1CNc1cc(-c2ccccc2OC)ncn1
FALSE

Follow-up item: CN(C)c1nc(-c2ccoc2)nc2ccccc12
FALSE

---

Assay: Cell Viability - LYMP2-015 (AID 971);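 note: cells exposed to compound for 24 h; nearly all actives have a fitted effect of over 55% in size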
Settings: LYMP2-015 lymphoblastoid cell viability; series mostly up to 92.2 µM
Description: NIH Chemical Genomics Center [NCGC] NIH Molecular Libraries Screening Centers Network [MLSCN] National Institutes of Environmental Health Sciences [NIEHS] National Toxicology Program [NTP] We have developed a 1536-well cell-based assay for quantitative high throughput screening (qHTS) against a number of cell lines to determine in vitro cytotoxicity of small molecules. […] 8. Detection; Luminescence; Viewlux plate reader […]
Inconclusive results are not listed. Activity calls are given as the source filed them. Calls follow the shape of the dose curve; as a rule, active = well fitted cell-killing curve with a large enough effect; inconclusive = small, poorly fitted or top-dose-only effect; inactive = flat fitted curve, though single readings scatter.
Tick one outcome: true = active, false = inactive

O=Cc1ccc2c(c1)OCO2 ... false

Please indicate how the test categorized Cc1ccc2c(c1N)C(=O)c1ccccc1C2=O .
false

Follow-up item: Cc1coc2c1CCC(C)C2 (stereo not drawn)
false

Follow-up item: Nc1ccccc1-c1ccccc1
false

Follow-up item: CCC[N+](=O)[O-]
false

Follow-up item: CC(C#N)CCC#N (stereo not drawn)
false

Follow-up item: CN1CSC(=S)N(C)C1
true

Follow-up item: Nc1cccc(Cl)c1
false

Follow-up item: CC(Cl)(Cl)Cl
false

Follow-up item: O=C(O)c1cc(Cl)ccc1Cl
false

Follow-up item: O=[N+]([O-])c1ccc(O)c([N+](=O)[O-])c1
false

---

Experiment: qHTS assay for small molecule disruptors of the mitochondrial membrane potential - 1 hr assay (AID 651754); note: nearly all actives have a fitted effect of over 35% in size
Conditions: series mostly up to 92.2 µM
Records with an inconclusive call do not appear. Activity calls are given as the source filed them. The call rests on the fitted dose curve.
Tick one outcome: active, inactive

OCCBr ... inactive
c1ccc(Nc2ccc(Nc3ccccc3)cc2)cc1 ... active
Nc1ccc(Oc2ccc(N)cc2)cc1 ... inactive
CCCCCCCCCCCCCl ... inactive

Please indicate how the test categorized CCCCC#N .
inactive

Follow-up item: C=CC(=O)OCCN(C)C
inactive

Follow-up item: CN(C)c1ccc(N)cc1
active

Follow-up item: C=CCCl
inactive

Follow-up item: C=COC(C)=O
inactive

Follow-up item: ClC(Br)Br
inactive

Follow-up item: ClCc1ccccn1
inactive

Follow-up item: O=[N+]([O-])c1cccc(CCl)c1
inactive

Follow-up item: CN1CSC(=S)N(C)C1
inactive

---

Experiment: Cellular Toxicity (caspase-3) Jurkat (AID 655);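 note: cells exposed to compound for 16 h at 37 °C before reading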
Conditions: Jurkat caspase-3 activation, luminescence; at 92.2 µM (top of the series), DMSO = 0%, tamoxifen = 100%
Results filed as inconclusive are left out. The source made the active and inactive calls. Calls follow the shape of the dose curve; as a rule, active = well fitted activation curve with a large enough effect; inconclusive = small, poorly fitted or top-dose-only effect; inactive = flat fitted curve, though single readings scatter.
Tick one outcome: yes = active, no = inactive

These solved cases illustrate the format of a correct answer.
C(CCOCC1CO1)COCC1CO1 (stereo not drawn) ... no
Oc1c(Cl)cccc1Cl ... no
CCNCC ... no

Please indicate how the test categorized N#CCc1ccccc1 .
no

Follow-up item: CCN(CC)CCO
no

Follow-up item: O=C(O)c1cccc(Cl)c1
no

Follow-up item: Clc1cccc(Cl)c1
no

Follow-up item: O=[N+]([O-])c1cccc2c([N+](=O)[O-])cccc12
no

Follow-up item: ClC(Cl)C(Cl)Cl
no

Follow-up item: Clc1ccc(C(c2ccccc2Cl)C(Cl)(Cl)Cl)cc1 (stereo not drawn)
no

Follow-up item: CC(C)CC(C)N (stereo not drawn)
no

Follow-up item: NNC(N)=S
no

Follow-up item: CCN(CC)N=O
no

Follow-up item: C=CC(=O)OCCO
no

Follow-up item: C=CCCC#N
no

Follow-up item: Oc1cc(Cl)c(Cl)c(Cl)c1Cl
yes

Follow-up item: C/C=C/C=O
no

Follow-up item: C1CC2OC2CC1C1CO1 (stereo not drawn)
no

---

Assay: Cell Viability - NIH 3T3 (AID 541);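 note: cells exposed to compound for 40 hours; plate controls were DMSO alone for no effect and tamoxifen positive control for full effect; nearly all actives have a fitted effect of over 25% in size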
Conditions: NIH 3T3 cell viability, qHTS; at 92.2 µM (top of the series)
Records with an inconclusive call do not appear.
Measurement label: activity change, negative = cytotoxicity (%)
Entry rule: numbers only, all in %.

Consider the following illustrative entries.
CN(C)c1ccc(N)cc1 ... -87
O=[N+]([O-])c1cc(Cl)c(Cl)c(Cl)c1 ... -119
[C-]1=CC=CC1.[C-]1=CC=CC1.[Cl-].[Cl-].[Ti+4] ... -86.5
O=S(=O)(Cl)c1ccccc1 ... -155
CC(C)(COCC1CO1)COCC1CO1 (stereo not drawn) ... -105
O=[N+]([O-])c1ccc(Cl)c(Cl)c1Cl ... -117
N#C/C=C/C#N ... -156

# evaluate next
What measured activity change, negative = cytotoxicity goes with O=[N+]([O-])c1cccc(CCl)c1 ?
-132
